- assayed_target: UniProt:P35354
- procedure_details: In vitro COX-2 inhibition, colorimetric screening assay kit
- applied_conditions: COX-1 IC50/COX-2 IC50
property_measured: (SI) in vitro COX-2 selectivity index
Write no unit; give the number alone.

Would you please look over these solved cases?
>>> observed_value("Cc1c(NC(=O)CSc2nnc(-c3ccc(Cl)cc3)o2)c(=O)n(-c2ccccc2)n1C [4b]")
4.44
>>> observed_value("Cc1c(NC(=O)CSc2nnc(-c3ccc([N+](=O)[O-])cc3)o2)c(=O)n(-c2ccccc2)n1C [4d]")
0.77
>>> observed_value("Cc1ccc(NC(=O)Nc2nnc(SCC(=O)Nc3c(C)n(C)n(-c4ccccc4)c3=O)s2)cc1 [6b]")
0.79

Could you now look at the following compound, please?
Report (SI) in vitro COX-2 selectivity index for Cc1ccc(-c2nc(SCC(=O)Nc3c(C)n(C)n(-c4ccccc4)c3=O)[nH]c(=O)c2C#N)cc1 [8a] please.
1.57

====

- assayed_target: COX-1 (Ovis aries, UniProt P05979)
- Sequence (P05979 25-600): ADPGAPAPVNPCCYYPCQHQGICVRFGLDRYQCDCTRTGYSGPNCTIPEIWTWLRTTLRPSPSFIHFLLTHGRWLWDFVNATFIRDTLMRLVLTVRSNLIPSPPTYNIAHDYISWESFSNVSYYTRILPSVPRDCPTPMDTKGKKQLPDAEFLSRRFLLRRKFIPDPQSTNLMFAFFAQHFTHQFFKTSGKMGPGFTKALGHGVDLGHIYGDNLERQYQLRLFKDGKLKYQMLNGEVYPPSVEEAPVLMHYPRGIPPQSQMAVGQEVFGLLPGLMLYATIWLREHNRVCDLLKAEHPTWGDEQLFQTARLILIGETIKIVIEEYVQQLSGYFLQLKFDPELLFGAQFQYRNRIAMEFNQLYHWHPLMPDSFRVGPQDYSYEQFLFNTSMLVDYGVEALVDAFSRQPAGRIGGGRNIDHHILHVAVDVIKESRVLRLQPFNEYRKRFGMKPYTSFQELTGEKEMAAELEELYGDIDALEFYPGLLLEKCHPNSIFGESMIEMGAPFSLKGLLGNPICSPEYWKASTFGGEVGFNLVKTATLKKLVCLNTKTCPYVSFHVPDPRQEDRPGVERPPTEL
pIC50 values by entry
Reminder that pIC50 is minus the log10 of a molar concentration.

Report pIC50 for Cc1c(NC(=O)CSc2nnc(NC(=O)Nc3ccc(Cl)cc3)s2)c(=O)n(-c2ccccc2)n1C [6d] please.
6.97

====

- assayed_target: COX-2 (Homo sapiens)
- Sequence (P35354 18-604): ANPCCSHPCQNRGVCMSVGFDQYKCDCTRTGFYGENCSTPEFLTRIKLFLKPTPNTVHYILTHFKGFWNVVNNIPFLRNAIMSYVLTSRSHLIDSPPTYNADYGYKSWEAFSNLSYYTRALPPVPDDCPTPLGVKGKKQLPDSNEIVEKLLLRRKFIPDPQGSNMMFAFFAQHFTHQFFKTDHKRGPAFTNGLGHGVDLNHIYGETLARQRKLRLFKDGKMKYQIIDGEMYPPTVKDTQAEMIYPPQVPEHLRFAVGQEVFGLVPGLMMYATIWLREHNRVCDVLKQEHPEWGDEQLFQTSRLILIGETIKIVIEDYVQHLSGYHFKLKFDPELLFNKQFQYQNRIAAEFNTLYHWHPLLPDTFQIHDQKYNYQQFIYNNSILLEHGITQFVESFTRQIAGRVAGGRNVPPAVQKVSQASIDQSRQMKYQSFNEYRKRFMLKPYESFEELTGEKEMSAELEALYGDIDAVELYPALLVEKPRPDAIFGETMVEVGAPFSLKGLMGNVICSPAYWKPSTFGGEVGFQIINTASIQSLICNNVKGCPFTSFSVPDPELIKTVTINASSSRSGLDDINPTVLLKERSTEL
- procedure_details: In vitro COX-2 inhibition, colorimetric screening assay kit
- applied_conditions: supplementary dose-response curve
HillSlope (best-fit value), COX-2 inhibition values by entry
Write no unit; give the number alone.

Would you please look over these solved cases?
>>> observed_value("Cc1c(NC(=O)CSc2nnc(NC(=O)Nc3ccc(Cl)cc3)s2)c(=O)n(-c2ccccc2)n1C [6d]")
-0.3273
>>> observed_value("Cc1ccc(-c2nnc(SCC(=O)Nc3c(C)n(C)n(-c4ccccc4)c3=O)o2)cc1 [4a]")
-0.3184
>>> observed_value("Cc1c(NC(=O)CSc2nc(-c3ccc(Cl)cc3)c(C#N)c(=O)[nH]2)c(=O)n(-c2ccccc2)n1C [8b]")
-0.3650
>>> observed_value("Cc1c(NC(=O)CSc2nnc(-c3ccc([N+](=O)[O-])cc3)o2)c(=O)n(-c2ccccc2)n1C [4d]")
-0.3340
>>> observed_value("Cc1c(NC(=O)CSc2nc(-c3ccc(Br)cc3)c(C#N)c(=O)[nH]2)c(=O)n(-c2ccccc2)n1C [8c]")
-0.3953

Report HillSlope (best-fit value), COX-2 inhibition for Cc1c(NC(=O)CSc2nnc(NC(=O)Nc3ccccc3)s2)c(=O)n(-c2ccccc2)n1C [6a] please.
-0.3826

Next compound: COc1ccc(NC(=O)Nc2nnc(SCC(=O)Nc3c(C)n(C)n(-c4ccccc4)c3=O)s2)cc1 [6c]
-0.3558

====

- assayed_target: COX-1 (Ovis aries, UniProt P05979)
- procedure_details: In vitro COX-1 inhibition, colorimetric screening assay kit
- applied_conditions: supplementary dose-response curve
property_measured: HillSlope (best-fit value), COX-1 inhibition
Write no unit; give the number alone.

Would you please look over these solved cases?
>>> observed_value("COc1ccc(-c2nc(SCC(=O)Nc3c(C)n(C)n(-c4ccccc4)c3=O)[nH]c(=O)c2C#N)cc1")
-0.3099
>>> observed_value("Cc1c(NC(=O)CSc2nnc(NC(=O)Nc3ccccc3)s2)c(=O)n(-c2ccccc2)n1C")
-0.3215
>>> observed_value("Cc1c(NC(=O)CSc2nnc(-c3ccc(Br)cc3)o2)c(=O)n(-c2ccccc2)n1C")
-0.4106
>>> observed_value("Cc1ccc(-c2nnc(SCC(=O)Nc3c(C)n(C)n(-c4ccccc4)c3=O)o2)cc1")
-0.3744
>>> observed_value("Cc1ccc(NC(=O)Nc2nnc(SCC(=O)Nc3c(C)n(C)n(-c4ccccc4)c3=O)s2)cc1")
-0.3398
>>> observed_value("Cc1c(NC(=O)CSc2nnc(-c3ccc([N+](=O)[O-])cc3)o2)c(=O)n(-c2ccccc2)n1C")
-0.3754
>>> observed_value("Cc1c(NC(=O)CSc2nc(-c3ccc(Br)cc3)c(C#N)c(=O)[nH]2)c(=O)n(-c2ccccc2)n1C")
-0.2705

Report HillSlope (best-fit value), COX-1 inhibition for Cc1c(NC(=O)CSc2nnc(-c3ccc(Cl)cc3)o2)c(=O)n(-c2ccccc2)n1C please.
-0.4124

====

- assayed_target: COX-1 (Ovis aries, UniProt P05979)
- procedure_details: In vitro COX-1 inhibition, colorimetric screening assay kit
- applied_conditions: supplementary dose-response curve
property_measured: LogIC50 (best-fit value), COX-1 inhibition

>>> observed_value("Cc1c(NC(=O)CSc2nnc(NC(=O)Nc3ccccc3)s2)c(=O)n(-c2ccccc2)n1C")
"2.119 Log (nM)"
>>> observed_value("Cc1c(NC(=O)CSc2nnc(-c3ccc([N+](=O)[O-])cc3)o2)c(=O)n(-c2ccccc2)n1C")
"1.705 Log (nM)"
>>> observed_value("Cc1c(NC(=O)CSc2nc(-c3ccc(Cl)cc3)c(C#N)c(=O)[nH]2)c(=O)n(-c2ccccc2)n1C")
"2.320 Log (nM)"

Could you now look at the following molecule, please?
Report LogIC50 (best-fit value), COX-1 inhibition for COc1ccc(-c2nc(SCC(=O)Nc3c(C)n(C)n(-c4ccccc4)c3=O)[nH]c(=O)c2C#N)cc1 please.
1.962 Log (nM)

====

melting point values by entry

>>> observed_value("Cc1c(NC(=O)CSc2nnc(-c3ccc([N+](=O)[O-])cc3)o2)c(=O)n(-c2ccccc2)n1C [4d]")
"214 to 216 °C"

Report melting point for Cc1c(NC(=O)CSc2nnc(-c3ccc(Br)cc3)o2)c(=O)n(-c2ccccc2)n1C [4c] please.
173 to 175 °C

Next molecule: Cc1ccc(NC(=O)Nc2nnc(SCC(=O)Nc3c(C)n(C)n(-c4ccccc4)c3=O)s2)cc1 [6b]
253 to 255 °C

Next molecule: Cc1c(NC(=O)CSc2nc(-c3ccc(Cl)cc3)c(C#N)c(=O)[nH]2)c(=O)n(-c2ccccc2)n1C [8b]
239 to 241 °C

====

- assayed_target: COX-1 (Ovis aries, UniProt P05979)
- procedure_details: In vitro COX-1 inhibition, colorimetric screening assay kit
- applied_conditions: supplementary dose-response curve
property_measured: LogIC50 (best-fit value), COX-1 inhibition

Would you please look over these solved cases?
>>> observed_value("Cc1ccc(NC(=O)Nc2nnc(SCC(=O)Nc3c(C)n(C)n(-c4ccccc4)c3=O)s2)cc1")
"1.915 Log (nM)"
>>> observed_value("COc1ccc(NC(=O)Nc2nnc(SCC(=O)Nc3c(C)n(C)n(-c4ccccc4)c3=O)s2)cc1")
"2.450 Log (nM)"
>>> observed_value("Cc1c(NC(=O)CSc2nnc(-c3ccc(Br)cc3)o2)c(=O)n(-c2ccccc2)n1C")
"2.112 Log (nM)"

Report LogIC50 (best-fit value), COX-1 inhibition for Cc1c(NC(=O)CSc2nnc(-c3ccc(Cl)cc3)o2)c(=O)n(-c2ccccc2)n1C please.
2.378 Log (nM)

====

IC50 values by entry
Protein target, amino acids: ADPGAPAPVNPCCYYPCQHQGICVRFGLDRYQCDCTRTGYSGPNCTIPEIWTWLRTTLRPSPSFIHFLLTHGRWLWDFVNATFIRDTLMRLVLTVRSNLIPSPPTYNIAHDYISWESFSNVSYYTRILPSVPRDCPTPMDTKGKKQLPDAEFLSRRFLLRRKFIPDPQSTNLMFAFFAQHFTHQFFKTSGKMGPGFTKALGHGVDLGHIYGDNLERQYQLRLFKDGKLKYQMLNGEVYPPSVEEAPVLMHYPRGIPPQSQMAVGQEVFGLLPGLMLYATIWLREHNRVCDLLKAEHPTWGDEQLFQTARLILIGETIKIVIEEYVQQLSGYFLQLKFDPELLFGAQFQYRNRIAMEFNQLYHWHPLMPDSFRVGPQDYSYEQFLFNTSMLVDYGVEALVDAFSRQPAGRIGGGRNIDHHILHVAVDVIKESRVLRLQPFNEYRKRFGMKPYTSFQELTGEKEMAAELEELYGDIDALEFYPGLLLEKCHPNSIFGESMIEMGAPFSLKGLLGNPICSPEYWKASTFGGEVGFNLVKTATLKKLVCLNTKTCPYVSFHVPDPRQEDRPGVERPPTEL
Could you give the number and then its unit, please?

>>> observed_value("Cc1c(NC(=O)CSc2nc(-c3ccc(Br)cc3)c(C#N)c(=O)[nH]2)c(=O)n(-c2ccccc2)n1C [8c]")
"164 nM"
>>> observed_value("Cc1c(NC(=O)CSc2nnc(NC(=O)Nc3ccccc3)s2)c(=O)n(-c2ccccc2)n1C [6a]")
"132 nM"
>>> observed_value("Cc1ccc(-c2nnc(SCC(=O)Nc3c(C)n(C)n(-c4ccccc4)c3=O)o2)cc1 [4a]")
"178 nM"

Report IC50 for Cc1ccc(NC(=O)Nc2nnc(SCC(=O)Nc3c(C)n(C)n(-c4ccccc4)c3=O)s2)cc1 [6b] please.
82.3 nM

Next compound: COc1ccc(NC(=O)Nc2nnc(SCC(=O)Nc3c(C)n(C)n(-c4ccccc4)c3=O)s2)cc1 [6c]
282 nM
